Source: paper PMC8869731

# SYSTEM_TESTED: KasQ (Streptomyces kasugaensis, UniProt A0A0K1H2R6)
# Sequence (A0A0K1H2R6 entry or part of it): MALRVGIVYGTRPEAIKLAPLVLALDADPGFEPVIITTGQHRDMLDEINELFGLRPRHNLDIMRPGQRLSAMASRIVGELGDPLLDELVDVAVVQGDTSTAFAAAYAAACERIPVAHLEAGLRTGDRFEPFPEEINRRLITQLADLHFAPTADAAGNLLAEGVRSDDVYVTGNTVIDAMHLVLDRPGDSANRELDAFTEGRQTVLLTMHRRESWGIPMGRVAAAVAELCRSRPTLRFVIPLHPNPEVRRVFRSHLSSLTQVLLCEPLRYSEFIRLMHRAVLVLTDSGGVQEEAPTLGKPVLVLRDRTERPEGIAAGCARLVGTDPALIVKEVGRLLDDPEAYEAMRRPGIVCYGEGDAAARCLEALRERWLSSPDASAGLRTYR
# PROTOCOL_TEXT: Isothermal titration calorimetry (ITC) of KasQ wild type versus substrates;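 further: titration of 1 mM substrate into 0.1 mM KasQ, 18 injections spaced 120 s, data fitted to a single-site binding model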
# Assay type: binding
# EXPERIMENTAL_CONTEXT: ITC; KasQ wild type
MEASUREMENT_KIND: ∆G

// known answers, use as guide
1. Nc1nc2c(ncn2[C@@H]2O[C@H](COP(=O)(O)OP(=O)(O)O)[C@@H](O)[C@H]2O)c(=O)[nH]1    NBD
2. CC(=O)NC1C(OP(=O)(O)OP(=O)(O)OCC2OC(n3ccc(=O)[nH]c3=O)C(O)C2O)OC(CO)C(O)C1O (centres unmarked)    NBD
3. Nc1ncnc2c1ncn2[C@@H]1O[C@H](COP(=O)(O)OP(=O)(O)O)[C@@H](O)[C@H]1O    NBD
4. O=c1ccn([C@@H]2O[C@H](COP(=O)(O)OP(=O)(O)OP(=O)(O)O)[C@@H](O)[C@H]2O)c(=O)[nH]1    -5.645 ± 1.340 kcal/mol
5. Nc1ncnc2c1ncn2[C@@H]1O[C@H](COP(=O)(O)OP(=O)(O)OP(=O)(O)O)[C@@H](O)[C@H]1O    NBD

Exercise: State its ∆G for this compound: O=C(O)[C@H]1OC(O)[C@H](O)[C@@H](O)[C@@H]1O (some centres unmarked)
Solution: NBD

Exercise: State its ∆G for this compound: "Cc1cn([C@H]2C[C@H](O)[C@@H](COP(=O)(O)OP(=O)(O)OP(=O)(O)O)O2)c(=O)[nH]c1=O"
Solution: -5.128 ± 1.221 kcal/mol

Exercise: State its ∆G for this compound: "Nc1nc2c(ncn2[C@@H]2O[C@H](COP(=O)(O)O)[C@@H](O)[C@H]2O)c(=O)[nH]1"
Solution: NBD

Exercise: State its ∆G for this compound: OC[C@H]1OC(O)[C@@H](O)[C@@H](O)[C@@H]1O (some centres unmarked)
Solution: NBD

Exercise: State its ∆G for this compound: CC(=O)N[C@H]1C(O)O[C@H](CO)[C@@H](O)[C@@H]1O (some centres unmarked)
Solution: NBD

Exercise: State its ∆G for this compound: "O=c1ccn([C@@H]2O[C@H](COP(=O)(O)O)[C@@H](O)[C@H]2O)c(=O)[nH]1"
Solution: -13.19 ± 1.245 kcal/mol

----------
# SYSTEM_TESTED: UniProtKB A0A0K1H2T0
# Sequence (A0A0K1H2T0 entry or part of it): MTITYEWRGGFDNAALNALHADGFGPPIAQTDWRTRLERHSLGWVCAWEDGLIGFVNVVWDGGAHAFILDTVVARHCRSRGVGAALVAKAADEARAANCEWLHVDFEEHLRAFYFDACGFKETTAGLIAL
# PROTOCOL_TEXT: ITC of KasH versus ligands;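 further: isothermal titration calorimetry at 25 °C, 0.1 mM KasH in the cell titrated with 1 mM ligand over 18 injections, data fit with a one-site binding model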
# EXPERIMENTAL_CONTEXT: ITC; KasH
MEASUREMENT_KIND: ∆H (kcal/mol)
Please give a number only; it is taken to be in kcal/mol.

// known answers, use as guide
1) C[C@H]1O[C@H](O[C@H]2[C@H](O)[C@@H](O)[C@@H](O)[C@H](O)[C@@H]2O)[C@@H](N)C[C@@H]1NC(=N)C(=O)O    -2.316
2) CCC(=O)SCCNC(=O)CCNC(=O)[C@H](O)C(C)(C)COP(=O)(O)OP(=O)(O)OC[C@H]1O[C@@H](n2cnc3c(N)ncnc32)[C@H](O)[C@@H]1OP(=O)(O)O    -7.351
3) CC(=O)SCCNC(=O)CCNC(=O)[C@H](O)C(C)(C)COP(=O)(O)OP(=O)(O)OC[C@H]1O[C@@H](n2cnc3c(N)ncnc32)[C@H](O)[C@@H]1OP(=O)(O)O    -14.19
4) CC(C)CC(=O)SCCNC(=O)CCNC(=O)[C@H](O)C(C)(C)COP(=O)(O)OP(=O)(O)OC[C@H]1O[C@@H](n2cnc3c(N)ncnc32)[C@H](O)[C@@H]1OP(=O)(O)O    -3.116
5) CC(C)(COP(=O)(O)OP(=O)(O)OC[C@H]1O[C@@H](n2cnc3c(N)ncnc32)[C@H](O)[C@@H]1OP(=O)(O)O)[C@@H](O)C(=O)NCCC(=O)NCCS    -7.350

For the next question, use this compound.
Exercise: State its ∆H for this compound: "CC(=O)CC(=O)SCCNC(=O)CCNC(=O)[C@H](O)C(C)(C)COP(=O)(O)OP(=O)(O)OC[C@H]1O[C@@H](n2cnc3c(N)ncnc32)[C@H](O)[C@@H]1OP(=O)(O)O"
Solution: -6.149
